Cited source: patent US20220380456A1

Molecular target: T1, His6-TEV-MSP1D1 (CA15914) (human Apo A-I derived, engineered, biotinylated with EZ-link NHS-Biotin for the BLI experiment only)
T1 construct: Membrane scaffold protein; The entry holds the 6xHis tag, the TEV cleavage site and MSP1D1; Tested in Apo-state (lipid free) and in Nanodisc-state (POPC nanodisc, two MSP1D1 per nanodisc)
T1 chain: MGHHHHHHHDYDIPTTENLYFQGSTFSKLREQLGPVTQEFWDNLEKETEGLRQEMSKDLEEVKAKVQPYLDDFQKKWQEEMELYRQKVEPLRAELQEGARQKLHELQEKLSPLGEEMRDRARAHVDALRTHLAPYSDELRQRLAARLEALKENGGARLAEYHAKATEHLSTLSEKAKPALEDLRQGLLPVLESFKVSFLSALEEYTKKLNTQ
Experiment: ELISA, periplasmic extract on coated MSP (1 µg/mL in 100 µL, Apo- and Nanodisc-state), EPEA-tag detection, OD405 after 1 h

BINDER	binding result
MP1521_E1 Nanobody (CA15896) (VHH, Entry includes 6xHis and EPEA tags; tested as periplasmic extract) VHH: QVQLVESGGGLVQPGGSLRLSCAASGTITRSPTMSWARQAPGRQREWVTSILGTGRTDYADSVKGRFTISRDNANNTVYLQMNNLKPEDSAVYYCYTVLNGRPSWGQGTQVTVSS	binds
MP1521_F3 Nanobody (CA15894) (VHH, Entry includes 6xHis and EPEA tags; tested as periplasmic extract; also called Nb F3) VHH: QVQLVESGGGLVQPGGSLRLSCAASGSGFGPNVMGWYRQAPGKRRELVATINRIGNINYGDSVKGRFTLSREIAVNTVYLQMNSLKPEDAANYYCYAAKYGVDYWGKGTQVTVSS	binds
MP1522_C10 Nanobody (CA15891) (VHH, Entry includes 6xHis and EPEA tags; tested as periplasmic extract) VHH: QVQLVESGGGLVQAGGSLRLACAASGRTSGSYAIGWFRQAPGKEREFAAAISFTAGVTYYSNSVKGRFTISRDSAKNTAYLQMNTLKPEDTAVYYCATLPSLVLILTAKPNIGYWGQGTQVTVSS	binds
